B1: MTMR15 (parent)
chain: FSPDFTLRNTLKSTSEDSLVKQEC

Variants of: B1
Assay: protein stability index of a GFP-peptide fusion (GPS, HEK-293T) (PSI 1-6); higher = more stable;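 note: lentivirally expressed fusions sorted by FACS into six bins by GFP to DsRed ratio, PSI derived from sequencing read proportions per bin multiplied by bin number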
Conditions: c terminus: a fixed tail appended
Decision: protein stability index >= 2 yields Condition met, all other cases yield Condition not met.

| sequence_entry | label_value |
| --- | --- |
| FSPDFTLRNTLKSTSLDSLVKQEC [E16L] | Condition not met |

INPUT: In plain terms: is recorded protein stability index at least 2 for FSPDFTLRNTLKSTSEDMLVKQEC [S18M] ?
OUTPUT: Condition met

INPUT: Given the entry FSPDFTLRNTLKSTSEDSLVKQWC [E23W] , answer whether its protein stability index meets or surpasses 2.
OUTPUT: Condition met

INPUT: Does the reported protein stability index for FSPDFTLRNTLKSTSWDSLVKQEC [E16W] fall at or above the 2 mark?
OUTPUT: Condition met

INPUT: Would you say FSPDFTLRNTTKSTSEDSLVKQEC [L11T] shows protein stability index at minimum 2?
OUTPUT: Condition not met

INPUT: Hi team, for FSPDFTLRNKLKSTSEDSLVKQEC [T10K] , is the recorded protein stability index at or above 2?
OUTPUT: Condition not met
